Test system: Klebsiella pneumoniae
Test description: Antibacterial activity against Klebsiella pneumoniae at 50 ug/well after 24 hrs by agar well diffusion method
Format: functional
Measurement context: read-out: DIZ
Measured zone of inhibition at 50 µg/disc of individual entries
Just the number please, in mm, no unit attached.

Example cases with answers are listed next.
- Compound: "Cc1ccc(S(=O)(=O)c2c(-c3ccc(Cl)cc3)noc2-c2ccc(-c3onc(-c4ccc(Cl)cc4)c3S(=O)(=O)c3ccc(C)cc3)cc2)cc1"
  zone of inhibition at 50 µg/disc, mm: 26
- Compound: "COc1ccc(C2=NOC(c3ccc(C4ON=C(c5ccc(OC)cc5)C4S(=O)(=O)c4ccc(Cl)cc4)cc3)C2S(=O)(=O)c2ccc(Cl)cc2)cc1 (stereo not given)"
  zone of inhibition at 50 µg/disc, mm: 9
- Compound: "COc1ccc(-c2noc(-c3ccc(-c4onc(-c5ccc(OC)cc5)c4S(=O)(=O)c4ccc(Cl)cc4)cc3)c2S(=O)(=O)c2ccc(Cl)cc2)cc1"
  zone of inhibition at 50 µg/disc, mm: 22
- Compound: "Cc1ccc(S(=O)(=O)C2C(c3ccc(Cl)cc3)=NN(c3ccccc3)C2c2ccc(C3C(S(=O)(=O)c4ccc(C)cc4)C(c4ccc(Cl)cc4)=NN3c3ccccc3)cc2)cc1 (stereo not given)"
  zone of inhibition at 50 µg/disc, mm: 8

Note: attention shifts to another entry.
Query: Look up zone of inhibition at 50 µg/disc for this compound: COc1ccc(-c2noc(-c3ccc(-c4onc(-c5ccc(OC)cc5)c4S(=O)(=O)c4ccc(C)cc4)cc3)c2S(=O)(=O)c2ccc(C)cc2)cc1
Result: 16

Data provenance is ChEMBL document CHEMBL3112509.
